target: AMZ-1 (Achromobacter mucicolens, UniProt Z9OND0BR39); construct: ORF without signal peptide (cleavage 26/27) in pColdI, E. coli BL21(DE3); His-tag removed with enterokinase; assay: nitrocefin hydrolysis, UV-VIS spectrophotometry; type: biochemical
pIC50: −log10 of the molar value.

| MOLECULE | pIC50 |
| --- | --- |
| NC(=O)[C@@H]1CC[C@@H]2CN1C(=O)N2OS(=O)(=O)O [avibactam] | 9.09 |
| C[C@]1(Cn2ccnn2)[C@H](C(=O)O)N2C(=O)C[C@H]2S1(=O)=O [tazobactam] | 2.96 |
